assay: NCI Yeast Anticancer Drug Screen. Data for the rad50 strain (AID 155);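 note: 0% = growth of vehicle-only cultures of the same strain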; details: S. cerevisiae rad50 strain growth inhibition; at 5.0 µM (retest, dose inferred, filed as 0.5); stronger effect = higher value
This is part of a sample that, as a whole, favours compounds with a hit. Of some 79,000 tested, about 15% had one in any assay.
Measure: growth inhibition (%)
Report only the number, with the unit % understood.

Example cases with answers are listed next.
| Compound | growth inhibition [%] |
| --- | --- |
| CCOC(=O)CC[P+](Cc1ccccc1)(c1ccccc1)c1ccccc1 | -32 |
| CC(=O)OC1=C(CC(C)C)C(=O)c2ccccc2C1=O | 7 |
| COc1ccc(/C=C/C(=N/NC(=O)c2ccccc2)C(C)CN(C)C)cc1 (stereo not given) | -3 |
| COc1ccc(C(c2cc3c(cc2O)OCO3)N2CCOCC2)c(OC)c1OC (stereo not given) | 4 |

Identify measured growth inhibition associated with CCCCCCCCCCCCCCC(C(=O)O)S(=O)(=O)O (stereo not given)
0
